B1: library; a variant is named by its letters at N, in order (parent)
chain: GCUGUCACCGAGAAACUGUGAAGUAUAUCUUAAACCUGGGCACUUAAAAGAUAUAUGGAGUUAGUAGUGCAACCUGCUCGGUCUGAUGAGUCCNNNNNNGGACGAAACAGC

- Variants of: B1
- protocolDescription: normalized RNA/DNA level without ligand (relative to sTRSVctl = 100) (log10 (% of sTRSVctl)); HEK293T; ligand: cyclic di-GMP (c-di-GMP-II aptamer); higher = less ribozyme self-cleavage, higher mRNA level
- measurementContext: reporter: mCherry (pCS4076), ligand present: no
observationType: normalized RNA/DNA level without ligand (log10)

- mutantId: "AGUUAC"
  valueMeasured: 1.71
- mutantId: "CCUCUC"
  valueMeasured: 1.79
- mutantId: "UCUGAC"
  valueMeasured: 1.68
- mutantId: "UCCAAU"
  valueMeasured: 1.64
- mutantId: "UGUGAU"
  valueMeasured: 1.68
- mutantId: "UACGCU"
  valueMeasured: 1.71
- mutantId: "AUUAUA"
  valueMeasured: 1.58
- mutantId: "GUGUGG"
  valueMeasured: 1.74
- mutantId: "CAGGCU"
  valueMeasured: 1.8
- mutantId: "CCGUAG"
  valueMeasured: 1.32
- mutantId: "GGCAUC"
  valueMeasured: 1.65
- mutantId: "CGUGUU"
  valueMeasured: 1.6
- mutantId: "GACUAU"
  valueMeasured: 1.65
- mutantId: "CGUCGC"
  valueMeasured: 1.76
- mutantId: "UUUCAA"
  valueMeasured: 1.71
- mutantId: "GAUACA"
  valueMeasured: 1.65
- mutantId: "ACUUGG"
  valueMeasured: 1.59
- mutantId: "CUCAAA"
  valueMeasured: 1.38
